Target: T1, LILRA1 on reporter cells (extracellular domain) (UniProt O75019 17-461, limits assumed)
T1 construct: extracellular domain
T1 sequence (O75019 17-461 limits assumed): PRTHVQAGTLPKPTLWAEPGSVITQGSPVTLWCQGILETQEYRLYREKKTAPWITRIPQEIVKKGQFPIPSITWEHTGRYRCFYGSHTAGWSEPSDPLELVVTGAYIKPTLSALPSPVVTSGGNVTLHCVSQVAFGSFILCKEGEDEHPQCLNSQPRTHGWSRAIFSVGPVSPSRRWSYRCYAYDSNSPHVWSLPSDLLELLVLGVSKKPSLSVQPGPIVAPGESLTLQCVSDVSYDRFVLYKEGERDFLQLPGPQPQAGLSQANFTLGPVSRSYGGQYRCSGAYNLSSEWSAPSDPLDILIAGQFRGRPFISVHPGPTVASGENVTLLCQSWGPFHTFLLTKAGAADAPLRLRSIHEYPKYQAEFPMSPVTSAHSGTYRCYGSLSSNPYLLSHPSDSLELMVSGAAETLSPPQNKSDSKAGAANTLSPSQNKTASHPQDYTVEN
Assay: flow cytometry, reporter cells

BINDER	binding result
B2-16 (antibody, V domains shown, also called B2-16_HC; B2-16_LC) VH: QVQLVQSGAEVKKPGSSVKVSCKASGGTFSSYAISWVRQAPGQGLEWMGGIIPIFGTANYAQKFQGRVTITADESTSTAYMELSSLRSEDTAVYYCASGIIPDNPYGMDVWGQGTMVSVSS VL: DIVMTQSPLSLPVTLGQPASISCTSSQSLVYSDGNTYLNWFHQRPGQSPRRLFYKVSNRASGVPDRFSGSGSGTDFTLKISRVEAEDLGVYYCMQGTHWPVTFGQGTRLEIK	no binding
B2-7 (antibody, V domains shown, also called B2-7_HC; B2-7_LC) VH: EVQLVESGGGVVQPGRSLRLSCAASGFTISSYGMHWVRQAPGKGLEWVAVISYDGSNKYYADSVKGRFTISRDNSKNTLYLQMNSLRVEDTAVYYCAKDLLLRYFDWSPKYYYNGMDVWGQGTMVTVSS VL: QSVLTQPPSVSVAPGKTARITCGGNNIGSKSVHWYQQKPGQAPVLVVYDDSDRPSGIPERFSGSNSGNTATLTISRVEAGDEADYYCQVWDSSSDHPGVFGTGTKVTVL	no binding
B2-17 (antibody, V domains shown, also called B2-17_HC; B2-17_LC) VH: EVQLLDSGPRLLKPSETLSLTCGVSGVSTSSTHWWSWVRQTPGKGLEWIGEILHNGNTNSNPSLKSRVSMSIDKSRNQFSLQLKSMTAADTAVYYCASASPNWGASGAFDAWAQGTMVTVSS VL: QSVLTQPPSASATPGQRVTISCSGSSSNIGSNPVNWYQQVPGMAPELVMYSDNQRPSGVPDRFSGSNSGTSASLAISGLQSEDEADYYCSTWDDSLNGLVFGTGTKVTVL	no binding
